- procedureDetails: clinical
- experimentalParameters: human, in vivo, 75 mg, HL Lambda_z (half-life) of vistusertib, geometric mean
readoutName: half-life

Task: half-life lookup needed for CNC(=O)c1cccc(-c2ccc3c(N4CCOC[C@@H]4C)nc(N4CCOC[C@@H]4C)nc3n2)c1 [vistusertib] , thanks.
Output: 162 min

###

- procedureDetails: clinical
- experimentalParameters: human, in vivo, 100 mg, HL Lambda_z (half-life) of vistusertib, geometric mean
readoutName: half-life (min)
Unit min implied. Number only.

Task: half-life lookup needed for CNC(=O)c1cccc(-c2ccc3c(N4CCOC[C@@H]4C)nc(N4CCOC[C@@H]4C)nc3n2)c1 , thanks.
Output: 180

###

- procedureDetails: clinical
- experimentalParameters: human, in vivo, 25 mg, HL Lambda_z (half-life) of vistusertib, geometric mean
readoutName: half-life (h)
Unit h implied. Number only.

Task: half-life lookup needed for CNC(=O)c1cccc(-c2ccc3c(N4CCOC[C@@H]4C)nc(N4CCOC[C@@H]4C)nc3n2)c1 , thanks.
Output: 3.3

###

- procedureDetails: clinical
- experimentalParameters: human, in vivo, 50 mg, AUClast of vistusertib, geometric mean
readoutName: AUC(0-t)
The reply should consist of the numeric value with the unit placed after it.

Task: AUC(0-t) lookup needed for CNC(=O)c1cccc(-c2ccc3c(N4CCOC[C@@H]4C)nc(N4CCOC[C@@H]4C)nc3n2)c1 , thanks.
Output: 2600 ng·h/mL

###

- procedureDetails: clinical
- experimentalParameters: human, in vivo, 50 mg, HL Lambda_z (half-life) of vistusertib, geometric mean
readoutName: half-life (h)
Unit h implied. Number only.

Task: half-life lookup needed for CNC(=O)c1cccc(-c2ccc3c(N4CCOC[C@@H]4C)nc(N4CCOC[C@@H]4C)nc3n2)c1 [vistusertib] , thanks.
Output: 1.8

###

- procedureDetails: clinical
- experimentalParameters: human, in vivo, 75 mg, Cmax of vistusertib, geometric mean
readoutName: Cmax (ng/mL)
Unit ng/mL implied. Number only.

Task: Cmax lookup needed for CNC(=O)c1cccc(-c2ccc3c(N4CCOC[C@@H]4C)nc(N4CCOC[C@@H]4C)nc3n2)c1 , thanks.
Output: 1840

###

- procedureDetails: clinical
- experimentalParameters: human, in vivo, 25 mg, Cmax of vistusertib, geometric mean
readoutName: Cmax (ng/mL)
Unit ng/mL implied. Number only.

Task: Cmax lookup needed for CNC(=O)c1cccc(-c2ccc3c(N4CCOC[C@@H]4C)nc(N4CCOC[C@@H]4C)nc3n2)c1 , thanks.
Output: 579

###

- procedureDetails: clinical
- experimentalParameters: human, in vivo, 25 mg, AUClast of vistusertib, geometric mean
readoutName: AUC(0-t) (ng·h/mL)
Unit ng·h/mL implied. Number only.

Task: AUC(0-t) lookup needed for CNC(=O)c1cccc(-c2ccc3c(N4CCOC[C@@H]4C)nc(N4CCOC[C@@H]4C)nc3n2)c1 [vistusertib] , thanks.
Output: 2090

meta.source: paper PMC6158767
